Tested on: ABCA1 mRNA
Test: ABCA1 mRNA reduction in Raw cells
Assay type: cell-based
Set-up: key: ✓: using strict cutoffs with respect to DSHN for passing each metric; X: using strict cutoffs with respect to DSHN for passing each metric
Details: pass/fail with respect to DSHN
outcome-measure: ABCA1 mRNA reduction (Raw Cells)

Completed entries (count: 5):
CCN(CC)S(=O)(=O)c1ccc2cc(O)c(C(=O)OC)cc2c1
X
COC(=O)c1cc2cccc(S(=O)(=O)N(C)C)c2cc1OC
X
CCN(CC)S(=O)(=O)c1cccc2cc(C(=O)OC)c(O)cc12
✓
COC(=O)c1cc2cc(S(=O)(=O)N(C)C)ccc2cc1OC
X
CCNS(=O)(=O)c1cccc2cc(C(=O)OC)c(OC)cc12
X

Continue with the compound presented below.
What value of ABCA1 mRNA reduction (Raw Cells) has been reported for the following compound? CCNS(=O)(=O)c1ccc2cc(OC)c(C(=O)OC)cc2c1
X

----------
Tested on: IL1b mRNA
Assay: IL1b mRNA reduction in Raw cells
Type: cell-based
Set-up: key: ✓: using strict cutoffs with respect to DSHN for passing each metric; X: using strict cutoffs with respect to DSHN for passing each metric
Conditions: pass/fail with respect to DSHN
outcome-measure: IL1b mRNA reduction (Raw Cells)

Completed entries (count: 5):
CCN(CC)S(=O)(=O)c1cccc2cc(C(=O)OC)c(O)cc12
✓
COC(=O)c1cc2cccc(S(=O)(=O)N(C)C)c2cc1OC
✓
CCN(CC)S(=O)(=O)c1ccc2cc(O)c(C(=O)OC)cc2c1
✓
CCNS(=O)(=O)c1cccc2cc(C(=O)OC)c(OC)cc12
✓
CCNS(=O)(=O)c1ccc2cc(OC)c(C(=O)OC)cc2c1
X

What value of IL1b mRNA reduction (Raw Cells) has been reported for the following compound? COC(=O)c1cc2cc(S(=O)(=O)N(C)C)ccc2cc1OC
X

----------
Assay: Low cellular toxicity screen
Assay type: cell-based
Design: key: ✓: using strict cutoffs with respect to DSHN for passing each metric; X: using strict cutoffs with respect to DSHN for passing each metric
Settings: pass/fail with respect to DSHN
outcome-measure: Low Toxicity

COC(=O)c1cc2cc(S(=O)(=O)N(C)C)ccc2cc1OC [Compound 8]
✓
CCN(CC)S(=O)(=O)c1cccc2cc(C(=O)OC)c(O)cc12 [DSHN-OMe]
✓
CCNS(=O)(=O)c1cccc2cc(C(=O)OC)c(OC)cc12 [Compound 5]
✓
CCN(CC)S(=O)(=O)c1ccc2cc(O)c(C(=O)OC)cc2c1 [Compound 9]
✓
CCNS(=O)(=O)c1ccc2cc(OC)c(C(=O)OC)cc2c1 [Compound 6]
X

Continue with the compound presented below.
What value of Low Toxicity has been reported for the following compound? COC(=O)c1cc2cccc(S(=O)(=O)N(C)C)c2cc1OC [Compound 7]
✓

----------
Biological target: NR0B2 (Homo sapiens, UniProt Q15466)
Construct: a reporter assay which makes use of the endogenous cholesterol homeostatic feedback loop; endogenous in cells; host or cells: HepG2
Sequence (Q15466 1-257): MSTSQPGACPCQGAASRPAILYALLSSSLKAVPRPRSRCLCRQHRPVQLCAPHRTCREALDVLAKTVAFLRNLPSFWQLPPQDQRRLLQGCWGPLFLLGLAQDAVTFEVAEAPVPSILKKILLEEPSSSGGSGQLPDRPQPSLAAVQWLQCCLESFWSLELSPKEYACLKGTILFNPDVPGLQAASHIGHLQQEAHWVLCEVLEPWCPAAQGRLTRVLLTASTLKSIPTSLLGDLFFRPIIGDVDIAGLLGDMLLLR
Assay: ABCA1 reporter screen to identify NR0B2 agonists (HepG2)
Assay type: cell-based
Set-up: key: ✓: using strict cutoffs with respect to DSHN for passing each metric; X: using strict cutoffs with respect to DSHN for passing each metric
Conditions: HepG2, 50 μM test compound, 1 μM GW3965; pass/fail with respect to DSHN
outcome-measure: ABCA1 reporter screen

Completed entries (count: 5):
CCNS(=O)(=O)c1cccc2cc(C(=O)OC)c(OC)cc12 [Compound 5]
X
CCNS(=O)(=O)c1ccc2cc(OC)c(C(=O)OC)cc2c1 [Compound 6]
✓
COC(=O)c1cc2cc(S(=O)(=O)N(C)C)ccc2cc1OC [Compound 8]
✓
CCN(CC)S(=O)(=O)c1cccc2cc(C(=O)OC)c(O)cc12 [DSHN-OMe]
✓
COC(=O)c1cc2cccc(S(=O)(=O)N(C)C)c2cc1OC [Compound 7]
✓

Continue with the molecule presented below.
What value of ABCA1 reporter screen has been reported for the following molecule? CCN(CC)S(=O)(=O)c1ccc2cc(O)c(C(=O)OC)cc2c1 [Compound 9]
X

----------
Molecular target: NR0B2 (Mus musculus, UniProt Q62227)
Construct: Dose response assay in BMDMs pre-treated with increasing doses of DSHN-OMe and then treated with 1 μM GW3965, using ABCA1 mRNA as an endpoint; endogenous in cells
Sequence (Q62227 whole entry): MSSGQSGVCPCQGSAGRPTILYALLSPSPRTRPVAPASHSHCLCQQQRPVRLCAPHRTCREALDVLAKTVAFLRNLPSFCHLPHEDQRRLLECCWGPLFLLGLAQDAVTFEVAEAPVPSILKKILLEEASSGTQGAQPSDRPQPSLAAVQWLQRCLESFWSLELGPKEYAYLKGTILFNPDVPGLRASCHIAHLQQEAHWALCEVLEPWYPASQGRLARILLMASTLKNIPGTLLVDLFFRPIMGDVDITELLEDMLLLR
Assay: Attenuation of GW3965 (LXR agonist) induction of ABCA1 mRNA in BMDMs
Settings: BMDMs pre-treated with compound, then 1 μM GW3965; 4 parameter variable slope fit; read-out: IC50, ABCA1 mRNA as endpoint
outcome-measure: IC50 (µM)
API: value field is a number in µM; no unit string.

What value of IC50 has been reported for the following compound? CCN(CC)S(=O)(=O)c1cccc2cc(C(=O)OC)c(O)cc12 [DSHN-OMe]
3.8
